System: NEK9
Conditions: concentration: 1 μM, replicates: in singlicate; n = 1;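 further: KINOMEscan kinase panel screen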
Hi there, I'd appreciate the recorded %Inh for every entry that follows.

Write down the reported %Inh of COC(=O)C(NC(=O)NC1CCN(c2ccnc(Nc3ccc(F)cc3)n2)C1)c1ccccc1 (centres unmarked) [GSK1379712] , test system: NEK9.
16%

Write down the reported %Inh of CCCCc1nn2ncccc2c1-c1ccnc(NC2CC2)n1 [GW684374] , test system: NEK9.
4%

Write down the reported %Inh of O=C(Nc1n[nH]c2cc(-c3ccsc3)ccc12)C1CC1 [SB-732932] , test system: NEK9.
0%

Write down the reported %Inh of COc1ccc(CSc2nnc(-c3ccc4ncsc4c3)o2)cc1C(F)(F)F , test system: NEK9.
0%

Write down the reported %Inh of CS(=O)(=O)CCNCc1nc(-c2ccc3ncnc(Nc4ccc5c(cnn5Cc5ccccc5)c4)c3c2)cs1.Cl.Cl [GW569716] , test system: NEK9.
0%

---

Test system: CSF1R-autoinhibited
Conditions: concentration: 1 μM, replicates: in singlicate; n = 1
QUANTITY_MEASURED: %Inh (%)
Enter your answer as a number in %; do not include the unit.

Write down the reported %Inh of Cc1c(Cn2c(C)c(C)n3c(=O)cc(N4CCOCC4)nc23)cccc1C(F)(F)F , test system: CSF1R-autoinhibited.
14

Write down the reported %Inh of CNCc1ccc2nc(NC(=O)c3ccc(C(C)(C)C)cc3)cn2c1 , test system: CSF1R-autoinhibited.
2

Write down the reported %Inh of Cn1cncc1-c1cc2c(Nc3ccc(OCc4ccccc4)cc3)ncnc2cn1 , test system: CSF1R-autoinhibited.
0

Write down the reported %Inh of Nc1cccc(-c2ccc3c(N)n[nH]c3c2)n1 , test system: CSF1R-autoinhibited.
0

Write down the reported %Inh of CSc1ccc(-c2nc3n(c2-c2ccncc2)CCC3)cc1 , test system: CSF1R-autoinhibited.
3

Write down the reported %Inh of CC(=O)c1c(C)c2cnc(Nc3ccc(N4CCNCC4)cn3)nc2n(C2CCCC2)c1=O , test system: CSF1R-autoinhibited.
7

---

System: CSNK1E
Details: concentration: 1 μM, replicates: in singlicate; n = 1
Use yes when the recorded %Inh is no lower than 1%; use no when it is lower.

Quick check, %Inh >= 1%? COc1ccc(-c2coc3ccc(-c4nnc(C)o4)cc23)cc1
no

Quick check, %Inh >= 1%? CC(=O)c1c(C)c2cnc(Nc3ccn(C)n3)nc2n(C2CCCC2)c1=O
no

Quick check, %Inh >= 1%? Cc1ccc(NC(=O)Nc2ccccc2)cc1-c1ccc(C(=O)Nc2ccncc2)cc1
yes

Quick check, %Inh >= 1%? Cn1cncc1C(=O)NC1CCN(c2ccnc(Nc3ccc(F)cc3)n2)C1 (stereo not shown)
no

Quick check, %Inh >= 1%? CC(C)c1ccc(O)cc1Nc1ccnc2ccc(C(F)(F)F)cc12
no

Quick check, %Inh >= 1%? CCc1ccc(-c2ccc3c(c2)-c2n[nH]cc2S(=O)(=O)N3C)cc1
no

Quick check, %Inh >= 1%? O=C1NC(=O)C(c2ccc(Cl)cc2)=C1Nc1cccc(Cl)c1
no

Quick check, %Inh >= 1%? COC(=O)C(Cc1ccccc1)NC(=O)NC1CCN(c2ccnc(Nc3ccc(F)cc3)n2)C1 (stereo not shown)
yes

Quick check, %Inh >= 1%? CC(=O)c1c(C)c2cnc(Nc3ccc(N4CCNCC4)cn3)nc2n(C2CCCC2)c1=O
yes
